assay: total protein half-life in vivo (active degradation + dilution); higher = more stable protein; conditions: wild type E. coli NCM3722; growth: C-lim chemostat; doubling time 12 h
What total protein half-life in vivo was measured for each of the following?

chain.sequence: MNIKGKALLAGCIALAFSNMALAEDIKVAVVGAMSGPVAQYGDQEFTGAEQAVADINAKGGIKGNKLQIVKYDDACDPKQAVAVANKVVNDGIKYVIGHLCSSSTQPASDIYEDEGILMITPAATAPELTARGYQLILRTTGLDSDQGPTAAKYILEKVKPQRIAIVHDKQQYGEGLARAVQDGLKKGNANVVFFDGITAGEKDFSTLVARLKKENIDFVYYGGYHPEMGQILRQARAAGLKTQFMGPEGVANVSLSNIAGESAEGLLVTKPKNYDQVPANKPIVDAIKAKKQDPSGAFVWTTYAALQSLQAGLNQSDDPAEIAKYLKANSVDTVMGPLTWDEKGDLKGFEFGVFDWHANGTATDAK [P0AD96]
total protein half-life in vivo: 11.5 h

Item under review: "MAILGLGTDIVEIARIEAVIARSGDRLARRVLSDNEWAIWKTHHQPVRFLAKRFAVKEAAAKAFGTGIRNGLAFNQFEVFNDELGKPRLRLWGEALKLAEKLGVANMHVTLADERHYACATVIIES" . Reported total protein half-life in vivo?
12.9 h

* * *

test: total protein half-life in vivo (active degradation + dilution); higher = more stable protein; conditions: wild type E. coli NCM3722; growth: N-lim chemostat; doubling time 12 h
quantity.kind: total protein half-life in vivo (h)
Answers are plain numbers, in h.

chain.sequence: MLELLFLLLPVAAAYGWYMGRRSAQQNKQDEANRLSRDYVAGVNFLLSNQQDKAVDLFLDMLKEDTGTVEAHLTLGNLFRSRGEVDRAIRIHQTLMESASLTYEQRLLAIQQLGRDYMAAGLYDRAEDMFNQLTDETDFRIGALQQLLQIYQATSEWQKAIDVAERLVKLGKDKQRVEIAHFYCELALQHMASDDLDRAMTLLKKGAAADKNSARVSIMMGRVFMAKGEYAKAVESLQRVISQDRELVSETLEMLQTCYQQLGKTAEWAEFLQRAVEENTGADAELMLADIIEARDGSEAAQVYITRQLQRHPTMRVFHKLMDYHLNEAEEGRAKESLMVLRDMVGEKVRSKPRYRCQKCGFTAYTLYWHCPSCRAWSTIKPIRGLDGL [P0AB58]
quantity.kind: total protein half-life in vivo
readout.number: 15.2

chain.sequence: MSNPILSWRRVRALCVKETRQIVRDPSSWLIAVVIPLLLLFIFGYGINLDSSKLRVGILLEQRSEAALDFTHTMTGSPYIDATISDNRQELIAKMQAGKIRGLVVIPVDFAEQMERANATAPIQVITDGSEPNTANFVQGYVEGIWQIWQMQRAEDNGQTFEPLIDVQTRYWFNPAAISQHFIIPGAVTIIMTVIGAILTSLVVAREWERGTMEALLSTEITRTELLLCKLIPYYFLGMLAMLLCMLVSVFILGVPYRGSLLILFFISSLFLLSTLGMGLLISTITRNQFNAAQVALNAAFLPSIMLSGFIFQIDSMPAVIRAVTYIIPARYFVSTLQSLFLAGNIPVVLVVNVLFLIASAVMFIGLTWLKTKRRLD [P0AFQ2]
quantity.kind: total protein half-life in vivo
readout.number: 12.5

For the sequence shown here, "MNTPAQLSLPLYLPDDETFASFWPGDNSSLLAALQNVLRQEHSGYIYLWAREGAGRSHLLHAACAELSQRGDAVGYVPLDKRTWFVPEVLDGMEHLSLVCIDNIECIAGDELWEMAIFDLYNRILESGKTRLLITGDRPPRQLNLGLPDLASRLDWGQIYKLQPLSDEDKLQALQLRARLRGFELPEDVGRFLLKRLDREMRTLFMTLDQLDRASITAQRKLTIPFVKEILKL" , give the reported total protein half-life in vivo.
7.28
